molecular target: UniProtKB P11387; assay: Plasmid DNA relaxation assay, hTopIB
Sequence (P11387 whole entry): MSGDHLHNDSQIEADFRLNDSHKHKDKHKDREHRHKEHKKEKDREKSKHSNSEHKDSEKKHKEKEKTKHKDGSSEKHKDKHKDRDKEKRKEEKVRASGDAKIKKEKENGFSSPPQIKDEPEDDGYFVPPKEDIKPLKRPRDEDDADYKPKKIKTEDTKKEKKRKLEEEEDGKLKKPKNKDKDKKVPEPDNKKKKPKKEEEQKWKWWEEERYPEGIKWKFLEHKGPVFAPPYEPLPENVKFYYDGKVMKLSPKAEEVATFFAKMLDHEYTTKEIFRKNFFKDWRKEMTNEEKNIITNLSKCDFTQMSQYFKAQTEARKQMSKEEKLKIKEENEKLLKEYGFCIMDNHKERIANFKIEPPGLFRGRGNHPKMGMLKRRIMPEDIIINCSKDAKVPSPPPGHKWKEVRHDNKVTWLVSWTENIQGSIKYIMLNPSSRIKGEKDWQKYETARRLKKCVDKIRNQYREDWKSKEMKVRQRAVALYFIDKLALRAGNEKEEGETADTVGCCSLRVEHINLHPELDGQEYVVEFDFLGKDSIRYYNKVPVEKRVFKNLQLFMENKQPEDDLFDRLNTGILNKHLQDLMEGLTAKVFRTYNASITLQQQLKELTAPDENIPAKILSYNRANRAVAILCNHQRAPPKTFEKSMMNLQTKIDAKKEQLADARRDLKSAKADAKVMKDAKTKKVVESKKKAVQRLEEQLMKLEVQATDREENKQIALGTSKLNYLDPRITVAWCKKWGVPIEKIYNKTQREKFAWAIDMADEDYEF

smilesString	EC50
CCCCCCCCCCCC#CC(=O)O	> 100 µM
CCCCCCCCCCCCCC#CC(=O)O	> 100 µM

###

molecular target: LdTopIB (Leishmania donovani, UniProt A0A3Q8IHS4+Q8WQM6); test: Plasmid DNA relaxation assay, LdTopIB

compound	targetOrTestSystem	EC50, µM
CC[C@@]1(O)C(=O)OCc2c1cc1n(c2=O)Cc2cc3ccccc3nc2-1 [CPT, camptothecin, reference compound]	LdTopIB (Leishmania donovani, UniProt A0A3Q8IHS4+Q8WQM6)	0.67
CCCCCCCCCCCCCC#CC(=O)O	LdTopIB (Leishmania donovani, UniProt A0A3Q8IHS4+Q8WQM6)	28.7
CCCCCCCCCCCCCCCC#CC(=O)O	LdTopIB (Leishmania donovani, UniProt A0A3Q8IHS4+Q8WQM6)	5.3
CCCCCCCCCCCC#CC(=O)O	LdTopIB (Leishmania donovani, UniProt A0A3Q8IHS4+Q8WQM6)	67.8
